- System: Fibroblast
- assay: Multiplex assay against human fibroblast
- Assay type: toxicity, cell-based
- measurementConditions: 48 h, 1 µM, compound concentration 1 uM, replicate 1
Quick reference for Population Normal (%) among some compounds
endpointLabel: Population Normal (%)

[[record]]
compound = "CC(=O)Nc1cccc2c1c(Sc1ccc(Cl)cc1)c(C)n2CC(=O)O"
valuereported = 93

[[record]]
compound = "CC(/C=C1\\SC(=S)N(CCCC(=O)Nc2ccc(C(=O)O)c(O)c2)C1=O)=C\\c1ccccc1"
valuereported = 96

[[record]]
compound = "Cc1cnc(-c2cc(N3CCN(C(=O)CCS(C)(=O)=O)CC3)ncc2Cl)c(C)c1"
valuereported = 97

[[record]]
compound = "Cc1c(CC(=O)O)c2cccnc2n1Cc1ccc(S(C)(=O)=O)cc1C(F)(F)F"
valuereported = 94

[[record]]
compound = "O=C(NCCN1CCC(n2c(=O)[nH]c3cc(Cl)ccc32)CC1)c1ccc(F)cc1 [HALOPEMIDE]"
valuereported = 96

[[record]]
compound = "O=C1[C@H](Cc2ccc(O)cc2)N2C(=O)CCN(C(=O)NCc3ccccc3)[C@H]2CN1Cc1cccc2ccccc12"
valuereported = 92

[[record]]
compound = "CCCCCC(O)/C=C/[C@H]1C(=O)CC(O)C1C/C=C\\CCCC(=O)O (some centres undefined)"
valuereported = 96

[[record]]
compound = "Cc1noc(-c2ccc(-c3ccc(CC(=O)O)cc3)cc2)c1NC(=O)O[C@H](C)c1ccccc1Cl"
valuereported = 98

[[record]]
compound = "Cc1onc(-c2ccccc2Cl)c1C(=O)N(C)c1ccc(Cl)cc1"
valuereported = 90


###

- Tested on: HEK-293T
- assay: Multiplex assay against HEK293T
- Type: toxicity, cell-based
- measurementConditions: human, 12 h, 10 µM, compound concentration 10 uM, replicate 1
Quick reference for Population Fragmented Nuclei (%) among some molecules
endpointLabel: Population Fragmented Nuclei (%)

[[record]]
molecule = "CC(C)(C)c1cc(NC(=O)Nc2ccc(-c3cn4c(n3)sc3cc(OCCN5CCOCC5)ccc34)cc2)no1"
experimentalsystem = "HEK-293T"
valuereported = "7%"

[[record]]
molecule = "N#Cc1c(Oc2cccc(OS(=O)(=O)CCCC(F)(F)F)c2)cccc1C(F)(F)F"
experimentalsystem = "HEK-293T"
valuereported = "8%"

[[record]]
molecule = "Cc1cccc(NC(=O)CN2CCC(c3ccccn3)CC2)c1.Cl.Cl"
experimentalsystem = "HEK-293T"
valuereported = "6%"

[[record]]
molecule = "Br.CS(=O)(=O)Nc1c(O)ccc2c1CCCC2C1=NCCN1 (stereo not drawn)"
experimentalsystem = "HEK-293T"
valuereported = "8%"

[[record]]
molecule = "CCCCCC(O)/C=C/[C@H]1C(=O)CC(O)C1C/C=C\\CCCC(=O)O (stereo partly drawn)"
experimentalsystem = "HEK-293T"
valuereported = "6%"

[[record]]
molecule = "Cc1sc2c(c1C)C(c1ccc(Cl)cc1)=N[C@@H](CC(=O)NCCCCCCCCNC(=O)COc1cccc3c1C(=O)N(C1CCC(=O)NC1=O)C3=O)c1nnc(C)n1-2 (stereo partly drawn)"
experimentalsystem = "HEK-293T"
valuereported = "9%"

[[record]]
molecule = "Cl.NCCc1ccc(O)c(O)c1 [DOPAMINE HYDROCHLORIDE]"
experimentalsystem = "HEK-293T"
valuereported = "5%"

[[record]]
molecule = "COc1cccc2c1c(NS(=O)(=O)c1ccc(Cl)s1)nn2Cc1cccc(CNC(=O)C(C)(C)O)c1"
experimentalsystem = "HEK-293T"
valuereported = "6%"

[[record]]
molecule = "CC(/C=C1\\SC(=S)N(CCCC(=O)Nc2ccc(C(=O)O)c(O)c2)C1=O)=C\\c1ccccc1"
experimentalsystem = "HEK-293T"
valuereported = "5%"

[[record]]
molecule = "O=C1[C@H](Cc2ccc(O)cc2)N2C(=O)CCN(C(=O)NCc3ccccc3)[C@H]2CN1Cc1cccc2ccccc12"
experimentalsystem = "HEK-293T"
valuereported = "5%"

[[record]]
molecule = "CN(C)C(=O)Cn1cc(-c2ccc(-c3cncc4ccccc34)cc2)cn1"
experimentalsystem = "HEK-293T"
valuereported = "8%"

[[record]]
molecule = "N#Cc1cc(F)cc(-c2nc(-c3ccc(F)cn3)no2)c1"
experimentalsystem = "HEK-293T"
valuereported = "10%"

[[record]]
molecule = "NCCc1cn(S(=O)(=O)c2c(Cl)nc3sccn23)c2ccccc12.O=C(O)C(=O)O"
experimentalsystem = "HEK-293T"
valuereported = "8%"

[[record]]
molecule = "Cl.N=C(N)NC(=O)Cc1c(Cl)cccc1Cl [GUANFACINE HYDROCHLORIDE]"
experimentalsystem = "HEK-293T"
valuereported = "12%"

[[record]]
molecule = "Cc1cnc(-c2cc(N3CCN(C(=O)CCS(C)(=O)=O)CC3)ncc2Cl)c(C)c1"
experimentalsystem = "HEK-293T"
valuereported = "7%"

[[record]]
molecule = "CCCCC(=O)N(Cc1ccc(-c2ccccc2-c2nnn[nH]2)cc1)[C@H](C(=O)O)C(C)C"
experimentalsystem = "HEK-293T"
valuereported = "7%"

[[record]]
molecule = "CC[C@@H](C)Nc1nc(C)nc2c(-c3ccc(OC)nc3C)c(C)nn12"
experimentalsystem = "HEK-293T"
valuereported = "6%"

[[record]]
molecule = "Cc1c(CC(=O)O)c2cccnc2n1Cc1ccc(S(C)(=O)=O)cc1C(F)(F)F"
experimentalsystem = "HEK-293T"
valuereported = "5%"

